# System: ATP;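 further: ATP exposure 15 min at 22 °C before imaging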
# experiment.summary: switch fluorescence ratio, 500 uM ATP over buffer (Cy3 cluster intensity, sum of 5 cycles each) (fold (ratio)); higher = stronger signal-on switching upon ATP binding; sequences stand for … in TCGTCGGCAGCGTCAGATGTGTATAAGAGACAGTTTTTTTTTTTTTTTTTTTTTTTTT…TC
# recorded.conditions: aptamer strand: ATP DNA aptamer (quencher-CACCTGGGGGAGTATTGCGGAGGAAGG + anchor), 100 nM annealed; ATP concentration: 500 uM
readout: switch fluorescence ratio
Keep it simple and answer with nothing but the number.

Request: What measured switch fluorescence ratio goes with TTCGGTTTTT ?
Result: 1.02

Request: Quick one: switch fluorescence ratio for TGATTGGGTT ?
Result: 0.975

Request: Tell me the measured switch fluorescence ratio of CGGATCATCA , please.
Result: 1

Request: # input sequence: TTTCTACGCG ; wanted: its switch fluorescence ratio
Result: 1.01

Request: Given the sequence CCCAGAGTTC , what is its reported switch fluorescence ratio?
Result: 1.06

Request: # input sequence: TTACAATTTC ; wanted: its switch fluorescence ratio
Result: 1.03

Request: Endpoint output: switch fluorescence ratio of TTTATTAGGG . Value?
Result: 0.975

Request: I would be grateful if you could share the reported switch fluorescence ratio for TTGGTCGGGG .
Result: 0.991

Request: Quick one: switch fluorescence ratio for TAGTGGAAAC ?
Result: 0.989

Request: switch fluorescence ratio for GTTAACGACG ?
Result: 1.02

Request: Please give the measured switch fluorescence ratio for this sequence: TTGGTTTGTG
Result: 1.01

Request: What measured switch fluorescence ratio goes with GGGCTTGTGT ?
Result: 0.993

Request: Param item = CGGGGTATGG ; retrieve measured switch fluorescence ratio.
Result: 1

Request: So what does the record say about switch fluorescence ratio for CTTTGCCTAG ?
Result: 0.981

Request: // lookup switch fluorescence ratio for AAGGGCAACG
Result: 0.974

Request: Return reported switch fluorescence ratio; argument: GTAATCTCAG
Result: 0.997

Request: Could you share which switch fluorescence ratio value was measured for CGGATAGAAT ?
Result: 0.984

Request: Record request: switch fluorescence ratio value, item ATTAAATAGC
Result: 1.03

Request: switch fluorescence ratio for TTGTATGGTT ?
Result: 1.02

Request: Sample CTAGGGGGCG — what was its switch fluorescence ratio?
Result: 0.992

Request: I am curious: what switch fluorescence ratio value has been reported for CCCCACGGCC ?
Result: 1.16

Request: Recorded switch fluorescence ratio for AGGGCCGGTC , please?
Result: 1.06

Request: Which switch fluorescence ratio is reported for this sequence? TTTTCGCTGG
Result: 1.01

Request: Item under review: ACAGAAATGG . Reported switch fluorescence ratio?
Result: 1.01

Request: GET /values?readout=switch fluorescence ratio&item= AGGGCAGGG
Result: 0.975

Request: I'd like to know its switch fluorescence ratio. The sequence in question is GAGGTAGCTA
Result: 1.03

Request: Query (sequence): CGGGTTAGTG ; field requested: switch fluorescence ratio
Result: 0.992

Request: Using the record for TAAGCTAAGG , report its switch fluorescence ratio.
Result: 1.04

Request: Data request, read-out switch fluorescence ratio, for AGGTGAGATT
Result: 1.02

Request: Given the entry AGCTCCGACA , report its measured switch fluorescence ratio.
Result: 1.63

Request: Look up switch fluorescence ratio for this sequence: TGGGGGGGG
Result: 1.01

Request: What switch fluorescence ratio value was documented for this sequence, AAATAAAAAC ?
Result: 1.08

Request: What switch fluorescence ratio value was documented for this sequence, CTGGGTAATA ?
Result: 1.08

Request: switch fluorescence ratio for TAATGTGCAA ?
Result: 1.09
